target: Histone-lysine N-methyltransferase EZH2 (Homo sapiens, UniProt Q15910, Y641N); test: Inhibition of EZH2 Y641N mutant (unknown origin)
Sequence (Q15910 whole entry Y641N): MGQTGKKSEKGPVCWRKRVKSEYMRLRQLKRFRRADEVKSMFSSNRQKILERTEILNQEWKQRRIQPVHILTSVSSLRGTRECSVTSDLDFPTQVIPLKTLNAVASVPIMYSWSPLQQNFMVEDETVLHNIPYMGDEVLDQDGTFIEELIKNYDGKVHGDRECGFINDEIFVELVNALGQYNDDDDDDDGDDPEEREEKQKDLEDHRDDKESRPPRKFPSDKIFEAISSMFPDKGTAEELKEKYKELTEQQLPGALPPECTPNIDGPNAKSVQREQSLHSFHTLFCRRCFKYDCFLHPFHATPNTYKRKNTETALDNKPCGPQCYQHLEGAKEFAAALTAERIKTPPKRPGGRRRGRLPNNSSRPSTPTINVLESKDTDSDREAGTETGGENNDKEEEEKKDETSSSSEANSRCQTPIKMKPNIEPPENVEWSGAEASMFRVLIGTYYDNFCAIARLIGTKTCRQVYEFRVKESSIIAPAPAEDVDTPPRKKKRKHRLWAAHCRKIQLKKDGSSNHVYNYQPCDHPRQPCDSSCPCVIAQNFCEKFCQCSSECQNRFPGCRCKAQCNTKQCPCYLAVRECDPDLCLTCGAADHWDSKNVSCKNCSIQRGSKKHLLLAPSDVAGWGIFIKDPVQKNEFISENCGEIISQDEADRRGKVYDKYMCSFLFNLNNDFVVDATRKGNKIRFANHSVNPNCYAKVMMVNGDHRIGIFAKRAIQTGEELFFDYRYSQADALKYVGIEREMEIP
pIC50: −log10 of the molar value.
endpointLabel: pIC50

P: Cc1cccc(Oc2ccc(C(=O)NC3CC(C)(C)NC(C)(C)C3)cc2Cl)c1C#N
Q: CC1(C)CC(NC(=O)c2ccc(Oc3cccc(-c4ccncc4)c3C#N)c(Cl)c2)CC(C)(C)N1
stdin: Hey, which is lower on measured pIC50, P or Q ? Respond using the label that marks the chosen record.
stdout: P

----------
target: Histone-lysine N-methyltransferase EZH2 (Homo sapiens, UniProt Q15910, Y641N); assay: Inhibition of EZH2 Y641N mutant (unknown origin)
endpointLabel: IC50 (µM)

Answered cases to consult:
>>> valueobserved("CC1CC(NC(=O)c2ccc(Oc3cccc(-c4ccnnc4)c3C#N)c(Cl)c2)CC(C)(C)N1 (centres undefined)")
10
>>> valueobserved("CC1CC(NC(=O)c2ccc(Oc3cccc(-c4ccnnc4)c3C#N)c(Cl)c2)CC(C)N1 (centres undefined)")
10
>>> valueobserved("CC1(C)CC(COc2ccc(Oc3cccc(-c4ccncn4)c3C#N)c(Cl)c2)CC(C)(C)N1")
2
>>> valueobserved("CC1(C)CC(NC(=O)c2ccc(Oc3cccc(Cl)c3C#N)c(Cl)c2)CC(C)(C)N1")
2.2
>>> valueobserved("CC1(C)CC(OC(=O)c2ccc(Oc3cccc(-c4ccnnc4)c3C#N)c(Cl)c2)CC(C)(C)N1")
2.5

1: CC1(C)CC(NC(=O)c2ccc(Oc3cccc(-c4cn[nH]c4)c3C#N)c(Cl)c2)CC(C)(C)N1
2: CC1(C)CC(NC(=O)c2ccc(Oc3ccccc3C#N)c(Cl)c2)CC(C)(C)N1CCO
stdin: Given the listed records, identify the one among 1 and 2 with higher IC50. Respond using the label that marks the chosen record.
stdout: 2

a: CC1(C)CC(NC(=O)c2ccc(Oc3cccc(-c4ccnnc4)c3C#N)c(Cl)c2)CC(C)(C)O1
b: CC1(C)CC(NC(=O)c2ccc(Oc3cccc(-c4ccncn4)c3C#N)c(Cl)c2)CC(C)(C)N1
stdin: Hey, which is lower on measured IC50, a or b ? Respond using the label that marks the chosen record.
stdout: b
(b: 0.13 µM, a: 66 µM)
